# key: entry, value: fold induction at 10 µM
Target: SFRP-1 (Homo sapiens, UniProt Q8N474)
Sequence (Q8N474 32-314): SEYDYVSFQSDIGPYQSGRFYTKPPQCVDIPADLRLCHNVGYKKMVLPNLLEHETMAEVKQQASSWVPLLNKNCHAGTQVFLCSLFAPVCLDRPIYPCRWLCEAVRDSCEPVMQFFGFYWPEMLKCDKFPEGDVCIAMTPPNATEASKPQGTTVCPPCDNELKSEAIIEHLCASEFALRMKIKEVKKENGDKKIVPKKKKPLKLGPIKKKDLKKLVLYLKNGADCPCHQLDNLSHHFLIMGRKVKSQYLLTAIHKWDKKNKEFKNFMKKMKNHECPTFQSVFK
Experiment: Cell-based assay for in vitro measurement of SFRP-1/SARP2 antagonist activity (U2OS cells co-transfected with 16x TCF-tk-Luciferase reporter, Wnt and hSFRP-1)
Conditions used: U2OS, read-out: Fold Induction with SFRP-1, U2OS cells, single dose 10 μM, luciferase reporter, fold induction over SFRP-1 control
Recorded metric: fold induction at 10 µM

{"Molecule": "Cc1cc(C)c(S(=O)(=O)c2ccccc2)cc1S(=O)(=O)NC1CCN(C(=O)OC(C)(C)C)CC1 [Example 911]", "Data value": 1.9}
{"Molecule": "CN(CCNS(=O)(=O)c1cc(S(=O)(=O)c2ccccc2)ccc1C(F)(F)F)C(=O)c1cccnc1Cl [Example 851]", "Data value": 3.6}
{"Molecule": "CN(CCNS(=O)(=O)c1cc(S(=O)(=O)c2ccccc2)ccc1C(F)(F)F)C(=O)OCC(C)(C)C [Example 867]", "Data value": 2.8}
{"Molecule": "C[C@H](NS(=O)(=O)c1cc(S(=O)(=O)c2ccccc2)ccc1C(F)(F)F)[C@H](O)c1ccccc1 [Example 685]", "Data value": 1.5}
{"Molecule": "O=C(O)CCC(=O)N1CCC(CNS(=O)(=O)c2cc(S(=O)(=O)c3ccccc3)ccc2C(F)(F)F)CC1 [Example 902]", "Data value": 3}
{"Molecule": "CCOC(=O)CCN(C)CCNS(=O)(=O)c1cc(S(=O)(=O)c2ccccc2)ccc1C(F)(F)F [Example 907]", "Data value": 2.2}
{"Molecule": "O=C(O)c1ccc(CCNS(=O)(=O)c2cc(S(=O)(=O)c3ccccc3)ccc2C(F)(F)F)cc1 [Example 877]", "Data value": 3.9}

====

# key: entry, value: fold induction at 15 µM
Target: SFRP-1 (Homo sapiens)
Experiment: Cell-based assay for in vitro measurement of SFRP-1/SARP2 antagonist activity (U2OS cells co-transfected with 16x TCF-tk-Luciferase reporter, Wnt and hSFRP-1)
Conditions used: U2OS, read-out: Fold Induction with SFRP-1, Conc 15 μM; with SFRP-1; fold induction over SFRP-1 control, single dose
Recorded metric: fold induction at 15 µM

{"Molecule": "CC(=O)c1ccc(S(=O)(=O)c2ccc(C)c(S(=O)(=O)NC3CCOCC3)c2)cc1 [Example 380]", "Data value": 0.5}
{"Molecule": "CCc1ccc(S(=O)(=O)c2ccccc2)cc1S(=O)(=O)NCCCc1ccccc1 [Example 245]", "Data value": 1.9}
{"Molecule": "Cc1ccc(S(=O)(=O)c2ccccc2)cc1S(=O)(=O)NC1CCN(C(=O)c2cccc(C#N)c2)CC1 [Example 477]", "Data value": 2.1}
{"Molecule": "Cc1ccc(S(=O)(=O)c2ccccc2)cc1S(=O)(=O)NC1CCN(S(=O)(=O)c2cccc3c(N(C)C)cccc23)CC1 [Example 483]", "Data value": 2.9}
{"Molecule": "CCOc1cc(CCNS(=O)(=O)c2cccc(S(=O)(=O)c3ccccc3)c2)ccc1OC [Example 83]", "Data value": 1.3}
{"Molecule": "Cc1ccc(S(=O)(=O)c2ccc(N[C@@H]3C[C@H]4CC[C@@H]3C4)cc2)cc1S(=O)(=O)NCCCn1ccnc1 [Example 369]", "Data value": 1.9}
{"Molecule": "CC(C)c1ccc(S(=O)(=O)c2ccc(F)cc2)cc1S(=O)(=O)NC[C@H](C)c1ccccc1 [Example 443]", "Data value": 2.5}

====

Target: SFRP-1 (Homo sapiens)
Experiment: Cell-based assay for in vitro measurement of SFRP-1/SARP2 antagonist activity (U2OS cells co-transfected with 16x TCF-tk-Luciferase reporter, Wnt and hSFRP-1);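 also: U2OS cells co-transfected with a TCF-tk luciferase reporter, a Wnt vector, hSFRP-1 or empty vector and CMV-βgal, luciferase luminescence read in cell lysates alongside βgal activity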
Conditions used: U2OS, read-out: Fold Induction with SFRP-1, Conc 15 μM; single dose; luciferase reporter, fold induction over SFRP-1 control; cells with SFRP-1

{"Compound": "CC(C)c1ccc(S(=O)(=O)c2ccc(N(C)C)cc2)cc1S(=O)(=O)NC1CCOCC1 [Example 544]", "Target": "SFRP-1 (Homo sapiens)", "fold induction at 15 µM": 2.7}
{"Compound": "CC(C)c1ccc(S(=O)(=O)c2ccc3c(c2)C(C)(C)OC(=O)N3)cc1S(=O)(=O)NCCc1ccccn1 [Example 515]", "Target": "SFRP-1 (Homo sapiens)", "fold induction at 15 µM": 1.8}
{"Compound": "CNc1ccc(S(=O)(=O)c2ccc(C(C)C)c(S(=O)(=O)NCC3CCOCC3)c2)cc1 [Example 543]", "Target": "SFRP-1 (Homo sapiens)", "fold induction at 15 µM": 2.7}
{"Compound": "O=S(=O)(c1ccccc1)c1ccc(Cl)c(S(=O)(=O)N2CCN(Cc3ccc4c(c3)OCO4)CC2)c1 [Example 637]", "Target": "SFRP-1 (Homo sapiens)", "fold induction at 15 µM": 0.9}
{"Compound": "CC(C)c1ccc(S(=O)(=O)c2ccc(F)cc2)cc1S(=O)(=O)NC1CCN(C(=O)N(C)C)CC1 [Example 573]", "Target": "SFRP-1 (Homo sapiens)", "fold induction at 15 µM": 2.1}
{"Compound": "CCCc1ccc(S(=O)(=O)c2ccc(F)cc2)cc1S(=O)(=O)NC1CCOCC1 [Example 560]", "Target": "SFRP-1 (Homo sapiens)", "fold induction at 15 µM": 1.6}
{"Compound": "COc1cccc(S(=O)(=O)c2ccc(C(C)C)c(S(=O)(=O)NC3CCOCC3)c2)c1 [Example 598]", "Target": "SFRP-1 (Homo sapiens)", "fold induction at 15 µM": 3.6}
{"Compound": "Cc1ccc(S(=O)(=O)c2ccc(F)cc2)cc1S(=O)(=O)NC1CCN(C(=O)N2CCOCC2)CC1 [Example 603]", "Target": "SFRP-1 (Homo sapiens)", "fold induction at 15 µM": 2.4}
{"Compound": "CC(C)(C)OC(=O)NC1CCN(S(=O)(=O)c2cc(S(=O)(=O)c3ccccc3)ccc2Cl)C1 (centres unmarked) [Example 638]", "Target": "SFRP-1 (Homo sapiens)", "fold induction at 15 µM": 1.2}
{"Compound": "Cc1c(S(=O)(=O)NCCc2ccccn2)cccc1S(=O)(=O)c1ccccc1 [Example 494]", "Target": "SFRP-1 (Homo sapiens)", "fold induction at 15 µM": 1}
{"Compound": "CCCc1ccc(S(=O)(=O)c2ccccc2)cc1S(=O)(=O)NCCCn1ccnc1 [Example 556]", "Target": "SFRP-1 (Homo sapiens)", "fold induction at 15 µM": 4}
{"Compound": "Cn1ccc2cc(S(=O)(=O)c3ccc(Cl)c(S(=O)(=O)NC4CCOCC4)c3)ccc21 [Example 607]", "Target": "SFRP-1 (Homo sapiens)", "fold induction at 15 µM": 2.3}
{"Compound": "CCCc1ccc(S(=O)(=O)c2ccc(F)cc2)cc1S(N)(=O)=O [Example 566]", "Target": "SFRP-1 (Homo sapiens)", "fold induction at 15 µM": 1.5}
{"Compound": "O=S(=O)(c1ccccc1)c1ccc(Cl)c(S(=O)(=O)N2CCN(CCN3CCOCC3)CC2)c1 [Example 636]", "Target": "SFRP-1 (Homo sapiens)", "fold induction at 15 µM": 1.7}
{"Compound": "CC(C)c1ccc(S(=O)(=O)c2ccc(N3CCN(C)CC3)cc2)cc1S(=O)(=O)NC1CCOCC1 [Example 547]", "Target": "SFRP-1 (Homo sapiens)", "fold induction at 15 µM": 3.7}
{"Compound": "CC(C)c1ccc(S(=O)(=O)c2ccc(F)cc2)cc1S(=O)(=O)NCCO [Example 582]", "Target": "SFRP-1 (Homo sapiens)", "fold induction at 15 µM": 2.6}
{"Compound": "CNc1ccc(S(=O)(=O)c2ccc(C(C)C)c(S(=O)(=O)NC3CCNCC3)c2)cc1 [Example 568]", "Target": "SFRP-1 (Homo sapiens)", "fold induction at 15 µM": 3.8}
{"Compound": "CCCc1ccc(S(=O)(=O)c2ccc(F)cc2)cc1S(=O)(=O)NCCC1CCOCC1 [Example 562]", "Target": "SFRP-1 (Homo sapiens)", "fold induction at 15 µM": 3.3}
{"Compound": "O=S(=O)(NCCc1ccccc1)c1cc(S(=O)(=O)c2ccccc2)ccc1C(F)(F)F [Example 570]", "Target": "SFRP-1 (Homo sapiens)", "fold induction at 15 µM": 2.4}
{"Compound": "CCCc1ccc(S(=O)(=O)c2ccccc2)cc1S(=O)(=O)NCCc1ccccc1 [Example 550]", "Target": "SFRP-1 (Homo sapiens)", "fold induction at 15 µM": 2.9}
{"Compound": "Cc1ccc(C)n1CC1CCN(S(=O)(=O)c2cc(S(=O)(=O)c3ccccc3)ccc2Cl)CC1 [Example 653]", "Target": "SFRP-1 (Homo sapiens)", "fold induction at 15 µM": 1}
{"Compound": "Cc1ccc(S(=O)(=O)c2ccccc2)cc1S(=O)(=O)NC1CCN(C(=O)c2cccnc2)CC1 [Example 516]", "Target": "SFRP-1 (Homo sapiens)", "fold induction at 15 µM": 3}
{"Compound": "O=S(=O)(NCCc1cccnc1)c1cc(S(=O)(=O)c2ccccc2)ccc1Cl [Example 640]", "Target": "SFRP-1 (Homo sapiens)", "fold induction at 15 µM": 3.5}
{"Compound": "CC(C)c1ccc(S(=O)(=O)c2ccc(NCCC#N)cc2)cc1S(=O)(=O)NC1CCOCC1 [Example 535]", "Target": "SFRP-1 (Homo sapiens)", "fold induction at 15 µM": 3.8}
{"Compound": "CC(C)c1ccc(S(=O)(=O)c2ccc3c(ccn3C)c2)cc1S(=O)(=O)NCCc1ccccn1 [Example 597]", "Target": "SFRP-1 (Homo sapiens)", "fold induction at 15 µM": 3.7}
{"Compound": "CC(C)c1cc(C(C)C)c(S(=O)(=O)c2ccccc2)cc1S(=O)(=O)NCC1CCOCC1 [Example 611]", "Target": "SFRP-1 (Homo sapiens)", "fold induction at 15 µM": 2.6}
{"Compound": "Cc1cccc(S(=O)(=O)c2ccc(C(C)C)c(S(=O)(=O)NCCc3ccccn3)c2)c1 [Example 579]", "Target": "SFRP-1 (Homo sapiens)", "fold induction at 15 µM": 3.4}
{"Compound": "O=S(=O)(NCCc1ccccn1)c1cc(S(=O)(=O)c2ccccc2)ccc1Br [Example 592]", "Target": "SFRP-1 (Homo sapiens)", "fold induction at 15 µM": 3.1}
{"Compound": "CCOC(=O)C1CCCN(S(=O)(=O)c2cc(S(=O)(=O)c3ccccc3)ccc2Cl)C1 (centres unmarked) [Example 645]", "Target": "SFRP-1 (Homo sapiens)", "fold induction at 15 µM": 1}
{"Compound": "Cc1c(Cl)cccc1S(=O)(=O)c1ccc(C(C)C)c(S(=O)(=O)NC2CCOCC2)c1 [Example 542]", "Target": "SFRP-1 (Homo sapiens)", "fold induction at 15 µM": 2.7}
{"Compound": "CC(C)c1ccc(S(=O)(=O)c2ccc(N(C)C)cc2)cc1S(=O)(=O)NCCc1ccccn1 [Example 507]", "Target": "SFRP-1 (Homo sapiens)", "fold induction at 15 µM": 2.7}
{"Compound": "CC(C)c1cc(C(C)C)c(S(=O)(=O)c2ccc(F)cc2)cc1S(=O)(=O)NCCc1ccncc1 [Example 633]", "Target": "SFRP-1 (Homo sapiens)", "fold induction at 15 µM": 1.5}

Source of measurements: patent US20060276464A1
